- experimental details: Simulated Intestinal Fluid (SIF) Stability Assay
- Assay type: in vitro ADME
- experimental conditions: simulated gi fluid, porcine pancreatin, 37° C.; monomers, Table 6
Where a SMILES comes first, the peptide text is derived from it.
readout: half-life

Inquiry: Fill blank: measured half-life of the compound CCCC[C@@H]1NC(=O)[C@H]([C@@H](C)O)NC(=O)[C@H](CC(=O)O)NC(=O)[C@H](CO)NC(=O)[C@H](CCCNC(=N)N)N(C)C(=O)c2ccccc2CSC(C)(C)[C@@H](C(=O)N[C@@H](Cc2c[nH]c3ccccc23)C(=O)N[C@@H](CCC(=O)O)C(=O)N[C@H](CCCCN)C(N)=O)NC1=O [compound 64] (HELM PEPTIDE1{[meR].S.D.T.[Nle].[Pen].W.E.[dK].[am]}|CHEM1{[O=C(c1ccccc1C[*:2])[*:1]]}$PEPTIDE1,CHEM1,1:R1-1:R1|PEPTIDE1,CHEM1,6:R3-1:R2$$$V2.0) is ____.
Reply text: 2.98 h

Inquiry: Fill blank: measured half-life of the compound CC(C)C[C@@H]1NC(=O)[C@H]([C@@H](C)O)NC(=O)[C@H](CC(=O)O)NC(=O)[C@H](CO)NC(=O)[C@H](CCCNC(=N)N)N(C)C(=O)c2ccccc2CSC(C)(C)[C@@H](C(=O)N[C@@H](Cc2ccccc2)C(=O)N[C@H](CCC(=O)O)C(=O)N[C@H](CCCCN)C(N)=O)NC1=O [compound 65] (HELM PEPTIDE1{[meR].S.D.T.L.[Pen].F.[dE].[dK].[am]}|CHEM1{[O=C(c1ccccc1C[*:2])[*:1]]}$PEPTIDE1,CHEM1,1:R1-1:R1|PEPTIDE1,CHEM1,6:R3-1:R2$$$V2.0) is ____.
Reply text: > 3 h

Inquiry: Fill blank: measured half-life of the compound CC(C)C[C@@H]1NC(=O)[C@H]([C@@H](C)O)NC(=O)[C@H](CC(=O)O)NC(=O)[C@H](CO)NC(=O)[C@H](CCCNC(=N)N)N(C)C(=O)c2ccccc2CSC(C)(C)[C@@H](C(=O)N[C@@H](Cc2c[nH]c3ccccc23)C(=O)N[C@H](CCC(=O)O)C(N)=O)NC1=O [compound 97] (HELM PEPTIDE1{[meR].S.D.T.L.[Pen].W.[dE].[am]}|CHEM1{[O=C(c1ccccc1C[*:2])[*:1]]}$PEPTIDE1,CHEM1,1:R1-1:R1|PEPTIDE1,CHEM1,6:R3-1:R2$$$V2.0) is ____.
Reply text: > 3 h

Origin of the recorded values: patent US20260217767A1
